Reference source for all entries: ChEMBL document CHEMBL1201862

test system: MCF7; assay: NCI tumour cell line growth inhibition, 48 h
The source made the active and inactive calls. Cut-off read from the data, not from the text of the source: active = GI50 up to about 1.1 µM and inactive = higher.
Write down the outcome that applies. Available outcomes: true (1) (active), false (0) (inactive)

Record excerpt, results attached:
1. O=C(CCCN1CCc2[nH]c3cc(F)ccc3c2C1)c1ccc(F)cc1 : false (0)
2. COc1cc2c(cc1Oc1c(Oc3c(O)c(OC)cc4c3C(CC(C)C)N(C)CC4)c(OC)cc3c1C(CC(C)C)N(C)CC3)C(CC(C)C)N(C)CC2 (stereo not given) : true (1)
3. O=C(CC(Cl)(Cl)C(Cl)(Cl)Cl)c1ccccc1 : false (0)
4. Cc1cc(NC[C@H](O)[C@H](O)[C@H](O)CO)c(Sc2cc(=O)[nH]c(=O)[nH]2)cc1C : false (0)
5. CC(=O)CC(=O)Nc1ccc2ccccc2c1 : false (0)

In: Write down the call the test reported for this compound. Item: O=C1CC(CC(O)C(O)C(O)CO)CC(=O)N1 (stereo not given)
Out: false (0)

In: Write down the call the test reported for this compound. Item: C=C1CN(C(=O)c2cc3cc(OC)c(OC)c(OC)c3[nH]2)c2cc([N+](=O)[O-])ccc21
Out: false (0)

In: Write down the call the test reported for this compound. Item: CN(C)CCCNc1cnc2cc3ccccc3cc2n1
Out: false (0)

In: Write down the call the test reported for this compound. Item: COc1c(Br)cc(/C=C(\C#N)c2ccccn2)cc1Br
Out: false (0)

In: Write down the call the test reported for this compound. Item: CC(NC(=O)c1c(O)[nH]c(=S)[nH]c1=O)c1ccc([N+](=O)[O-])cc1 (stereo not given)
Out: false (0)

====

tested on: Malme-3M; test: NCI tumour cell line growth inhibition, 48 h
Active and inactive are the calls of the source. No stated cut-off is given here; in the data, active = GI50 up to about 1.1 µM and inactive = higher.
Write down the outcome that applies. Available outcomes: active, inactive

1. Cc1ccc(O)c(Cc2nc3ccccc3nc2-c2cccc(Br)c2)c1 : inactive
2. Cc1cc(=O)nc(S(=O)(=O)NC(=S)Nc2ccc(Br)cc2)[nH]1 : inactive

In: Write down the call the test reported for this compound. Item: O=C1C(Cl)C(c2cccc(Br)c2)N1c1c(O)c(Cl)cc(Br)c1Cl (stereo unspecified)
Out: inactive

In: Write down the call the test reported for this compound. Item: CCOc1cc2c(cc1O)C(O)C[C@@H]1[C@@H]2CC[C@]2(C)[C@@H](O)CC[C@@H]12 (stereo partly specified)
Out: active

In: Write down the call the test reported for this compound. Item: CC(=O)O[C@H]1CCC2[C@@H]3CCC4C(=O)c5oncc5C[C@]4(C)C3CC[C@@]21C (stereo partly specified)
Out: inactive

In: Write down the call the test reported for this compound. Item: N#CC(C(=O)/C(=N\NC(N)=O)C(C#N)c1ccc(Cl)cc1)c1ccc(Cl)cc1 (stereo unspecified)
Out: inactive

====

system: SR; experiment: NCI tumour cell line growth inhibition, 48 h
Calls of active or inactive are those of the source. No stated cut-off is given here; in the data, active = GI50 up to about 1.1 µM and inactive = higher.
Write down the outcome that applies. Available outcomes: active, inactive

1. C=CC(C)(C)c1cc([C@@H]2COc3cc(O)ccc3C2=O)c(O)c(OC)c1OC : inactive
2. c1ccc(CN2CCC3(CC2)SSC2(CCN(Cc4ccccc4)CC2)SS3)cc1 : inactive

In: Write down the call the test reported for this compound. Item: CC1C(NNC(N)=O)Oc2cc3c(cc2C1c1ccccc1O)OCO3 (centres undefined)
Out: inactive

In: Write down the call the test reported for this compound. Item: CCCCCCCCCCCC(=O)OCCOCCOCCOCCOCCOCc1ccc(OC)cc1
Out: inactive

In: Write down the call the test reported for this compound. Item: C=C1C(=O)OC2C1CCC(C)C1(O)C=CC(=O)C21C (centres undefined)
Out: inactive
